# Tested on: TK-10 renal
# PROTOCOL NOTES: NCI-60 one-dose screen, 48 h
# CONDITIONS USED: 10 µM unless noted
This is part of a sample that, as a whole, favours compounds with a hit. Of some 83,000 tested, about 20% had one in any assay. Active and inactive are the calls of the source. Rule for the calls: active = growth percent below 10; inactive = the rest.
Classes to choose from: t (active), f (inactive)

Solved cases (4 shown):
Hello, I am checking results. What call was entered for "CC(C)(C)c1cnc(CSc2cnc(NC(=O)C3CCNCC3)s2)o1" ?
t

Called result for "COc1cc2ncnc(Nc3ccc(O)cc3)c2cc1OC"
t

Just curious, what result did "COc1ccc(-c2ccc3c(N4CCOC[C@@H]4C)nc(N4CCOC[C@@H]4C)nc3n2)cc1CO" get here?
t

What call does the record list for "O=C(NOCCO)c1ccc2cncn2c1Nc1ccc(I)cc1F" ?
f

// next entry
What classification did "CC/C(=C(\c1ccc(OCCN2CCCCCCC2)cc1)c1ccc(OC(=O)C2CCCCC2)cc1)c1ccc(Cl)cc1" end up with in this test?
f

The reported numbers originate from PubChem BioAssay (NCI).
